System: Human CDK12 wt/CycK (Homo sapiens (Human))
Sequence (Q9NYV4 whole entry): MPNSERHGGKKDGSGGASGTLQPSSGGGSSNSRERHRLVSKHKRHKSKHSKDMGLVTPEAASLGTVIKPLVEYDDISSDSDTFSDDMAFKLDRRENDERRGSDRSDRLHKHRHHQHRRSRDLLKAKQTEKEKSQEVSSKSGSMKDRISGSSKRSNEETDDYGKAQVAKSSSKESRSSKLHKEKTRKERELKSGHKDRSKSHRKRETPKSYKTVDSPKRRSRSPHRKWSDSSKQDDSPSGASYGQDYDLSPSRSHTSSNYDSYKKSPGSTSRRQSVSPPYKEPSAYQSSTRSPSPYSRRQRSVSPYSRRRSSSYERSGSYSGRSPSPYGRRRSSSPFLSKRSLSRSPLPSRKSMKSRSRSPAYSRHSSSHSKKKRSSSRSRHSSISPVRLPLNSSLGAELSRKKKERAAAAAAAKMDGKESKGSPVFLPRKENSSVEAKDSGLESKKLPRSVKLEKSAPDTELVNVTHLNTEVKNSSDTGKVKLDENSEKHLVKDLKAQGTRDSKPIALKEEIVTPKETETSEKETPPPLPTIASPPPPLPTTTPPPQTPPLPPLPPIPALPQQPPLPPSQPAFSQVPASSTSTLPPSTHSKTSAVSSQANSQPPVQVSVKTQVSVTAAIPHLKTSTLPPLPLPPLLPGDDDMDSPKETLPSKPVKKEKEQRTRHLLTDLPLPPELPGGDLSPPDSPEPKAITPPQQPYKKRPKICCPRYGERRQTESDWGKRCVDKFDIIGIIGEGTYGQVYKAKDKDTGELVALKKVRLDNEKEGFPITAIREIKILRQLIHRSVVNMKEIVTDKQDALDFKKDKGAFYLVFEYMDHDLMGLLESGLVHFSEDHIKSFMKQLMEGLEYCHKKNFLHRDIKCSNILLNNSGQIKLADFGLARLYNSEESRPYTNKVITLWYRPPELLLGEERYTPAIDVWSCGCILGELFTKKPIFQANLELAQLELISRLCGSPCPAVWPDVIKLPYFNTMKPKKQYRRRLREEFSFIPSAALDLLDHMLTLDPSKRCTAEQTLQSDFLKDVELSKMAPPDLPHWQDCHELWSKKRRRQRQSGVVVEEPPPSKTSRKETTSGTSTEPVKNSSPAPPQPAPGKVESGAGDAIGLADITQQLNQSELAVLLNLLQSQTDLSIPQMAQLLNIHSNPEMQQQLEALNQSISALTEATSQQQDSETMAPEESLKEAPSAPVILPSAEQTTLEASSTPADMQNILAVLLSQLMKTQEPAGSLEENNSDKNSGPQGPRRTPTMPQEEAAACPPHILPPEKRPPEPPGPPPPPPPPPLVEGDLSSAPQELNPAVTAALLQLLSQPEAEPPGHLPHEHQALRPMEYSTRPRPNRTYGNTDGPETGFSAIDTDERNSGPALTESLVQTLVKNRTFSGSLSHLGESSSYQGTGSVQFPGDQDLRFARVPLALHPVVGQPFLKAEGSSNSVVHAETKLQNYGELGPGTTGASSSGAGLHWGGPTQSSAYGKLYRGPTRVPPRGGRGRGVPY
Sequence (O75909 whole entry partner): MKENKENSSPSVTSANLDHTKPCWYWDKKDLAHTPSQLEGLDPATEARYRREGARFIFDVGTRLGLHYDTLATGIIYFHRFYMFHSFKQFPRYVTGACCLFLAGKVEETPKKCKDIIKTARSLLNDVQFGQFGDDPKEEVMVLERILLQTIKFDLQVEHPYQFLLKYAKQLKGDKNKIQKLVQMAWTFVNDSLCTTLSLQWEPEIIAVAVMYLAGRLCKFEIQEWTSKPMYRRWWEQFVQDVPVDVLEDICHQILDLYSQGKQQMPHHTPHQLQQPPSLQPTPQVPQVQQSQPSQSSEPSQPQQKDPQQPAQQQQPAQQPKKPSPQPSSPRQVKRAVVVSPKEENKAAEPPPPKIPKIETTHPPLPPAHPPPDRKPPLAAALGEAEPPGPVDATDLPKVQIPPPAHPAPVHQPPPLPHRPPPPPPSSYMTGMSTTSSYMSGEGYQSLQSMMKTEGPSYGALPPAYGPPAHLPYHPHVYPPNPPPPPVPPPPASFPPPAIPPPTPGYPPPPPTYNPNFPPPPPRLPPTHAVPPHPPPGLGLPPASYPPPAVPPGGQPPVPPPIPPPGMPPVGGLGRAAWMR
Measurement Description: Radiometric protein kinase assay (33PanQinase Activity Assay), CDK12
Type: biochemical
Settings: ratio of CDK7 IC50 to CDK12 IC50; greater than 1 indicates selectivity for CDK12
Give CDK7/CDK12 for every item shown.
Numbers only.

For orientation, consider the following solved cases.
>  <Compound>
c1ccc(-c2ccc(CNc3cc(O[C@H]4CCCNC4)nc4c(C5CC5)cnn34)cc2)nc1 [PPA-064]

>  <CDK7/CDK12>
14.9

$$$$
>  <Compound>
O[C@H]1CNCC[C@@H]1CNc1cc(NCc2ccc(-c3ccccn3)cc2)n2ncc(C3CC3)c2n1 [PPA-006]

>  <CDK7/CDK12>
6.1

$$$$

Below: the item to evaluate.
CDK7/CDK12 for Human CDK12 wt/CycK (Homo sapiens (Human)) with input Cc1cccnc1-c1ccc(CNc2cc(NC[C@H]3CCNC[C@@H]3O)nc3c(C(C)C)cnn23)cc1 [PPA-012] equals 0.9

====

System: Human CDK12 wt/CycK (Homo sapiens (Human))
Measurement Description: Radiometric protein kinase assay (33PanQinase Activity Assay), CDK12
Format: biochemical
Settings: read-out: CKD12 Biochemical Potency IC50
Measured Quantity: IC50 (nM)
Answers are plain numbers, in nM.

>  <Compound>
c1ccc(-c2ccc(CNc3cc(N4CCNCC4)nc4c(C5CC5)cnn34)cc2)nc1 [PPA-038]

>  <Units Label>
nM

>  <IC50>
115

$$$$
>  <Compound>
O[C@H]1CNCC[C@@H]1CNc1cc(NCc2ccc(-c3ncccn3)cc2)n2ncc(C3CC3)c2n1 [PPA-029]

>  <Units Label>
nM

>  <IC50>
63

$$$$

Short answer for O[C@H]1CNCC[C@@H]1CNc1cc(NCc2ccc(-c3ccccn3)cc2F)n2ncc(C3CC3)c2n1 [PPA-020] : IC50 was 99

====

System: Human CDK12 wt/CycK (Homo sapiens (Human))
Measurement Description: Radiometric protein kinase assay (33PanQinase Activity Assay), CDK12
Assay type: biochemical
Settings: ratio of CDK7 IC50 to CDK12 IC50; greater than 1 indicates selectivity for CDK12
Mark NO for CDK7/CDK12 values under 10, and YES for everything at or above.

The following compounds have reported results that may help.
>  <Compound>
O[C@H]1CNCC[C@@H]1CNc1cc(NCc2ccc(-c3ccccc3)cc2)n2ncc(Cl)c2n1 [PPA-083]

>  <Class Name>
NO

$$$$
>  <Compound>
CC(C)c1cnn2c(NCc3ccc(-c4ncccc4F)cc3)cc(NC[C@H]3CCNC[C@@H]3O)nc12 [PPA-014]

>  <Class Name>
NO

$$$$
>  <Compound>
CC(C)c1cnn2c(NCc3ccc(-c4ccccc4)cc3)cc(NC[C@H]3CCNC[C@@H]3O)nc12 [PPA-004]

>  <Class Name>
NO

$$$$
>  <Compound>
c1ccc(-c2ccc(CNc3cc(NC4CCNCC4)nc4c(C5CC5)cnn34)cc2)nc1 [PPA-048]

>  <Class Name>
YES

$$$$

Reported CDK7/CDK12 reaches at least 10 for c1ccc(-c2ccc(CNc3cc(N4CCNC5(CC5)C4)nc4c(C5CC5)cnn34)cc2)nc1 [PPA-077] ? YES

Reported CDK7/CDK12 reaches at least 10 for N#Cc1cnn2c(NCc3ccc(-c4ccccn4)cc3)cc(N[C@H]3CCNC3)nc12 [PPA-086] ? YES

Reported CDK7/CDK12 reaches at least 10 for OC1CCN(c2cc(NCc3ccc(-c4ccccn4)cc3)n3ncc(C4CC4)c3n2)CC1 [PPA-050] ? YES

Reported CDK7/CDK12 reaches at least 10 for FC1(F)CNCCC1CNc1cc(NCc2ccc(-c3ccccn3)cc2)n2ncc(C3CC3)c2n1 (stereo not shown) [PPA-041] ? NO

Reported CDK7/CDK12 reaches at least 10 for CC(C)c1cnn2c(NCc3ccc(-c4ccncn4)cc3)cc(NC[C@H]3CCNC[C@@H]3O)nc12 [PPA-008] ? NO

Reported CDK7/CDK12 reaches at least 10 for c1cnn(-c2ccc(CNc3cc(N[C@H]4CCNC4)nc4c(C5CC5)cnn34)cc2)c1 [PPA-091] ? NO

Reported CDK7/CDK12 reaches at least 10 for c1ccc(-c2ccc(CNc3cc(N[C@H]4CCNC4)nc4c(C5CC5)cnn34)cc2)nc1 [PPA-037] ? NO
